Source of measurements: PubChem BioAssay (NCI)

Test system: A498 renal
ASSAY_PROCEDURE: NCI-60 one-dose screen, 48 h
RUN_PARAMETERS: 10 µM unless noted
About 83,000 compounds went through this panel and 20% of them were active in at least one assay; those are over-represented in the sample as a whole. Calls of active or inactive are those of the source. The calls were made as follows: active = growth percent below 10; inactive = the rest.
Possible outcomes: yes (active), no (inactive)

1) Cc1cc2cn3c4ccc(O)cc4nc(N)c3c2cc1C :: no
2) CCn1cnc(C[C@H](NC(=O)[C@@H](NC(=O)Nc2cc(C(F)(F)F)cc(C(F)(F)F)c2)C(C)(C)C)C(=O)OC)c1 :: yes
3) S=C(N/N=C/c1cc(Cl)cc(Cl)c1)NC12CC3CC(CC(C3)C1)C2 :: no
4) CCCCCCC(C)N(CC(C)(C)O)C(=O)c1ccc([N+](=O)[O-])cc1 (stereo not given) :: no
5) c1ccc(Nc2ncc3c(n2)-c2cccn2CC3)cc1 :: no
